experimental_system: T1, EsCas13d, nuclease-dead (Eubacterium siraeum, UniProt B0MS50, R295A;H300A;R849A;H854A)
T1 sequence: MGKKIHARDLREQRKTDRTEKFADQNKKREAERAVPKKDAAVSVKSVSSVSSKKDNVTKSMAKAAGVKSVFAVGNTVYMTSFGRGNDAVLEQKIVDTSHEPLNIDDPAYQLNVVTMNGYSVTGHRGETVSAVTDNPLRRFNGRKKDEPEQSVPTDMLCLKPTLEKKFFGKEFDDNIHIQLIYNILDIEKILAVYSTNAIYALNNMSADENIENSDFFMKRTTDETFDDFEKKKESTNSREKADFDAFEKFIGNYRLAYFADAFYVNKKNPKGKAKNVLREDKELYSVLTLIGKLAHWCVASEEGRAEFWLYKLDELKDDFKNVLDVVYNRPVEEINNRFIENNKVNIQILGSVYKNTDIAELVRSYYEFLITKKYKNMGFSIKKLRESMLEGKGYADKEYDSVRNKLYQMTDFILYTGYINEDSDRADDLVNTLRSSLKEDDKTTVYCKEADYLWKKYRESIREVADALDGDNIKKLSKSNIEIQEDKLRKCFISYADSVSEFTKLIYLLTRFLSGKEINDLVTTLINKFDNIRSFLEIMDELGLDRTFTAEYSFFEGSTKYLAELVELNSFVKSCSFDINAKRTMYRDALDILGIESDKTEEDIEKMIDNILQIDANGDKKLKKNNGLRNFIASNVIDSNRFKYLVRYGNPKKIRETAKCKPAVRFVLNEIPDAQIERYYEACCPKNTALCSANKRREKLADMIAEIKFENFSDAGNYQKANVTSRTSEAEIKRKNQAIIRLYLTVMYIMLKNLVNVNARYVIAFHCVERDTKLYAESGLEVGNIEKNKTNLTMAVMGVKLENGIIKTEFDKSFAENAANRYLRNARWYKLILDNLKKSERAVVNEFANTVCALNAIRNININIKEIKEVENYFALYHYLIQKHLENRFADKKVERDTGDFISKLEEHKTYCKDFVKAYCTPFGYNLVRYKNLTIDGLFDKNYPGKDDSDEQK
experiment_description: crRNA (strand 1, pre-loaded); Mg2+; 40 mM Tris-HCl pH 7.5, 150 mM NaCl, 6 mM MgCl2, 1 mM DTT, 0.1% Tween-20, 0.2 mg/ml BSA; 25 C; 10 min per concentration, then washed
run_parameters: tags: His6-TwinStrep-SUMO cleaved; N-terminal SNAP kept (SNAP-Surface 488); label: 3' end held by stalled T7 RNA polymerase
readout_type: Kd (nM)
Quick reminder: number only, in nM, skip the unit.

Reference set (8 entries):
{"binder": "target 1 MT 5'PFS GGC 3'PFS CUC (mixed) RNA 1: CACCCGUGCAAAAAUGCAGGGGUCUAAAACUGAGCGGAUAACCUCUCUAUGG RNA 2: GGGAAUGGAUCCACAUCUACGAAUUCGGCCCAUAGAGAGGUUAUCCGCUCACUCAGAUCGGAAGAGCACACGU", "Kd [nM]": 17.1}
{"binder": "target 1 MT 5'PFS UCA 3'PFS CUC (mixed) RNA 1: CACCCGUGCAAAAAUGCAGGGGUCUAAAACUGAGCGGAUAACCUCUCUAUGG RNA 2: GGGAAUGGAUCCACAUCUACGAAUUCUCACCAUAGAGAGGUUAUCCGCUCACUCAGAUCGGAAGAGCACACGU", "Kd [nM]": 12.9}
{"binder": "target 3 insA 3' of 6,insA 3' of 4 (mixed) RNA 1: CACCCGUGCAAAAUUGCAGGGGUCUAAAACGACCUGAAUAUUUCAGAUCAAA RNA 2: GGGAAUGGAUCCACAUCUACGAAUUCGUUUUUGAUCUGAAAUAUUCAAGAGUCUGCAGAUCGGAAGAGCACACGU", "Kd [nM]": 10.8}
{"binder": "target 1 insG 3' of 22,insC 3' of 5 (mixed) RNA 1: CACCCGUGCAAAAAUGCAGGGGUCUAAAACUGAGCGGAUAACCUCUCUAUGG RNA 2: GGGAAUGGAUCCACAUCUACGAAUUCGUACGCAUAGAGAGGUUAUCCGCCUCACCGAGAUCGGAAGAGCACACGU", "Kd [nM]": 67}
{"binder": "target 1 MT 5'PFS GCA 3'PFS UAC (mixed) RNA 1: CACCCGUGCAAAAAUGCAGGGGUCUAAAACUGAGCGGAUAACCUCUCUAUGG RNA 2: GGGAAUGGAUCCACAUCUACGAAUUCGCACCAUAGAGAGGUUAUCCGCUCAUACAGAUCGGAAGAGCACACGU", "Kd [nM]": 14}
{"binder": "target 3 G3C,A5G (mixed) RNA 1: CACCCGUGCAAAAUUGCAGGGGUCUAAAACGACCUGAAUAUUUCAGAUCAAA RNA 2: GGGAAUGGAUCCACAUCUACGAAUUCGUUUUUGAUCUGAAAUAUUCGGCUCUGCAGAUCGGAAGAGCACACGU", "Kd [nM]": 16.1}
{"binder": "target 3 insC 3' of 7,insU 3' of 5 (mixed) RNA 1: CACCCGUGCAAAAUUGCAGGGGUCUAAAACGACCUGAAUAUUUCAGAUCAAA RNA 2: GGGAAUGGAUCCACAUCUACGAAUUCGUUUUUGAUCUGAAAUAUUCCAUGGUCUGCAGAUCGGAAGAGCACACGU", "Kd [nM]": 57}
{"binder": "target 1 MT 5'PFS GUG 3'PFS ACA (mixed) RNA 1: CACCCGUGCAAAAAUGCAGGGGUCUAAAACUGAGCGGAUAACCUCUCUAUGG RNA 2: GGGAAUGGAUCCACAUCUACGAAUUCGUGCCAUAGAGAGGUUAUCCGCUCAACAAGAUCGGAAGAGCACACGU", "Kd [nM]": 24.1}

Prompt: Answer with reported Kd of target 1 G13A,A18U (mixed) RNA 1: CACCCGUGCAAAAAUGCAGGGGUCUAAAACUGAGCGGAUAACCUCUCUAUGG RNA 2: GGGAAUGGAUCCACAUCUACGAAUUCGUACCAUUGAGAAGUUAUCCGCUCACCGAGAUCGGAAGAGCACACGU
Completion: 22.5

Prompt: Read the entry target 3 insG 3' of 5,insU 3' of 5 (mixed) RNA 1: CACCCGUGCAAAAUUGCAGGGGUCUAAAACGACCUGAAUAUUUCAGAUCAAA RNA 2: GGGAAUGGAUCCACAUCUACGAAUUCGUUUUUGAUCUGAAAUAUUCAGUGGUCUGCAGAUCGGAAGAGCACACGU and write its reported Kd.
Completion: 18.1

Prompt: State, in one line, measured Kd of target 1 insC 3' of 20,insG 3' of 19 (mixed) RNA 1: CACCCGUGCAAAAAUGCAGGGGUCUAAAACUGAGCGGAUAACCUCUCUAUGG RNA 2: GGGAAUGGAUCCACAUCUACGAAUUCGUACCACUGAGAGAGGUUAUCCGCUCACCGAGAUCGGAAGAGCACACGU
Completion: 47

Prompt: Answer with the recorded Kd of target 3 insA 3' of 7,insU 3' of 5 (mixed) RNA 1: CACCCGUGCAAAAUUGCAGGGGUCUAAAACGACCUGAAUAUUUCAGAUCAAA RNA 2: GGGAAUGGAUCCACAUCUACGAAUUCGUUUUUGAUCUGAAAUAUUACAUGGUCUGCAGAUCGGAAGAGCACACGU only.
Completion: 15.7

Prompt: Answer with reported Kd of target 1 G12U,A14U (mixed) RNA 1: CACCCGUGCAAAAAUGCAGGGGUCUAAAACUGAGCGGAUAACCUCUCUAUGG RNA 2: GGGAAUGGAUCCACAUCUACGAAUUCGUACCAUAGAGUGUUUAUCCGCUCACCGAGAUCGGAAGAGCACACGU
Completion: 25
